Would you kindly list fold difference in affinity in comparison to original for each of these binders?
Measured Target: binding partner of C5A (XPA23)
Experiment Summary: Biacore, mutant vs original C5A (XPA23)
Numbers only, in fold.

Completed entries (count: 2):
Binder	Readout Number
C5A (XPA23) light chain variable region S93G (antibody, V domains shown) VH: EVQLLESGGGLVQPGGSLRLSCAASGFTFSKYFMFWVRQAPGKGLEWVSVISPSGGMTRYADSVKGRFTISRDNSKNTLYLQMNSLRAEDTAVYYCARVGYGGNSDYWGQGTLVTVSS VL: DIQMTQSPSSVSASVGDRLTIICRASQDINRWLAWYQQTPGNAPKLLIHSATSLQSGVPSRFSGSGSGTDFTLTINSLQPEDFATYYCQQADGFPLTFGGGTKVEIK	0.75
C5A (XPA23) light chain variable region L96A (antibody, V domains shown) VH: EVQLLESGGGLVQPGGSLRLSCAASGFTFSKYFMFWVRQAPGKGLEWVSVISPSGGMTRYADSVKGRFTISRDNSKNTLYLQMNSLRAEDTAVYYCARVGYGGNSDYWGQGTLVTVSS VL: DIQMTQSPSSVSASVGDRLTIICRASQDINRWLAWYQQTPGNAPKLLIHSATSLQSGVPSRFSGSGSGTDFTLTINSLQPEDFATYYCQQADSFPATFGGGTKVEIK	0.26

Please find the next binder below.
input: Give a short answer stating reported fold difference in affinity in comparison to original for C5A (XPA23) light chain variable region L96I (antibody, V domains shown) VH: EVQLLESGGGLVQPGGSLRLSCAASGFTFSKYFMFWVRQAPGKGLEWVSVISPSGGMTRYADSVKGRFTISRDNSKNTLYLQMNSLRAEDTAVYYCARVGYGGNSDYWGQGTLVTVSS VL: DIQMTQSPSSVSASVGDRLTIICRASQDINRWLAWYQQTPGNAPKLLIHSATSLQSGVPSRFSGSGSGTDFTLTINSLQPEDFATYYCQQADSFPITFGGGTKVEIK .
output: 0.67
